tested.on: T1, human HER2 His6 protein, extracellular domain (NCBI NP_004439.2, Met 1-Thr 652), C-terminal polyhistidine tag (human, UniProt P04626 23-652)
T1 construct: range 1-652; The stated range includes Met 1; also called HER2-ECD; human HER2-ECD
protocol.summary: called SPR, run on ForteBio OCTET R2; antibody captured on Protein A sensor, HER2 protein at 500-31.3 nM as analyte, 25 °C
For each record, write down the corresponding pKd.
Give bare numbers, as −log10 of the molar value.

Lab note: each binder below needs its pKd filled in.
1. HER2 VHH-FC1 fusion protein 1-C10 (Fc fusion, 25; also called 1-C10-FC1; chimeric nanobody 1-C10) QVQLVESGGDLVQPGGSLRLSCATSGLTFRRYELKWYRQAPGKERELVAGITPASGSRNYADSVKGRFTISRDDAKMTVYLQMNSLEPEDTAVYYCNAYWMIPQHIENNYWGKGTLVTVSSEPKSSDKTHTCPPCPAPEFEGGPSVFLFPPKPKDTLMISRTPEVTCVVVDVSHEDPEVKFNWYVDGVEVHNAKTKPREEQYNSTYRVVSVLTVLHQDWLNGKEYKCKVSNKALPASIEKTISKAKGQPREPQVYTLPPSRDELTKNQVSLTCLVKGFYPSDIAVEWESNGQPENNYKTTPPVLDSDGSFFLYSKLTVDKSRWQQGNVFSCSVMHEALHNHYTQKSLSLSPGK
2. HER2 VHH-FC1 fusion protein 1-B05 (Fc fusion, 25; also called 1-B05-FC1; chimeric nanobody 1-B05) AVQLVESGGGPGGSLRLSCAASGITFFRHTLGWYRQAPGKQRELVASITGGESTNYADSVKSRFTISRDNAKNMVFLQMNSLKPEDTALYYCNSKWDAAGVEFWGKGTLVTVSSEPKSSDKTHTCPPCPAPEFEGGPSVFLFPPKPKDTLMISRTPEVTCVVVDVSHEDPEVKFNWYVDGVEVHNAKTKPREEQYNSTYRVVSVLTVLHQDWLNGKEYKCKVSNKALPASIEKTISKAKGQPREPQVYTLPPSRDELTKNQVSLTCLVKGFYPSDIAVEWESNGQPENNYKTTPPVLDSDGSFFLYSKLTVDKSRWQQGNVFSCSVMHEALHNHYTQKSLSLSPGK
3. HER2 VHH-FC1 fusion protein 2-C07 (Fc fusion, 25; also called 2-C07-FC1; chimeric nanobody 2-C07) AVQLVESGGGLVQPGGSLRLSCAASGLTFMRYDINWYRQAPGKERELVAALDSSSGRTNYADFTEGRFTISRNNAKNSAYLQMNNLKPEDTASYYCNAQWKRIGADYWGQGTQVTVFSEPKSSDKTHTCPPCPAPEFEGGPSVFLFPPKPKDTLMISRTPEVTCVVVDVSHEDPEVKFNWYVDGVEVHNAKTKPREEQYNSTYRVVSVLTVLHQDWLNGKEYKCKVSNKALPASIEKTISKAKGQPREPQVYTLPPSRDELTKNQVSLTCLVKGFYPSDIAVEWESNGQPENNYKTTPPVLDSDGSFFLYSKLTVDKSRWQQGNVFSCSVMHEALHNHYTQKSLSLSPGK

Resp:
[8.34, 8.05, 8.13]

Where do the numbers come from? From patent US20260151496A1.
